- Assay method text: Plasma protein binding, dog plasma
- Format: in vitro ADME
- Condition label: equilibrium dialysis, 37° C., 4 hours, 2.5 uM, read-out: Dog fu
- Procedure: Binding of compounds to plasma proteins from rat and dog was determined by equilibrium dialysis of the appropriate species plasma at 37° C. for 4 hours in the presence of 2.5 uM of test compound. Plasma samples were precipitated and separated by centrifugation. The supernatant was analyzed by mass spec detection (LC-MS/MS), using a standard curve for each compound. […]
Outcome measure: fraction unbound at 4 h, 2.5 uM
Answer with the value's number alone.

Reported fraction unbound at 4 h, 2.5 uM of `COC(=O)NC[C@H]1CN(c2cc(F)c(N3CCS(=O)(=O)CC3)c(F)c2)C(=O)O1` : 0.69
